target.of.assay: T1, THD1 K404A (UniProt P26039 1-405, K404A)
T1 construct: talin-1 (TLN1) head domain, residues 1-405, K404A; source: E. coli (DE3) Rosetta 2, purified (IMAC, SEC); not shown: His10-SUMO, N-terminal, cleaved
protocol: MST; apparent; THD1 or THD1 mutants titrated to 488–β3-CT in the presence of 30-40 µM KIND2; MST buffer
assay.context: both partners purified
pKd: −log10 of the molar value. No end group written: not given here.
readout.label: pKd

[
  {
    "binder": "{ATTO 488}-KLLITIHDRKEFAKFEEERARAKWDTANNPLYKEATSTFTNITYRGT (peptide, UniProt O54890 741-787, looked up, integrin β3 cytoplasmic tail (β3-CT); source: synthetic peptide (MPIB Core Facility)) [ATTO 488-labeled integrin β3 cytoplasmic tail (488–β3-CT)]",
    "meas.value": 3.93
  }
]
